# test-system: soluble human BACE (Homo sapiens, UniProt P56817)
# Construct: cells secreting human recombinant soluble BACE; made in house; conditioned medium
# Sequence (P56817 46-457 limits assumed): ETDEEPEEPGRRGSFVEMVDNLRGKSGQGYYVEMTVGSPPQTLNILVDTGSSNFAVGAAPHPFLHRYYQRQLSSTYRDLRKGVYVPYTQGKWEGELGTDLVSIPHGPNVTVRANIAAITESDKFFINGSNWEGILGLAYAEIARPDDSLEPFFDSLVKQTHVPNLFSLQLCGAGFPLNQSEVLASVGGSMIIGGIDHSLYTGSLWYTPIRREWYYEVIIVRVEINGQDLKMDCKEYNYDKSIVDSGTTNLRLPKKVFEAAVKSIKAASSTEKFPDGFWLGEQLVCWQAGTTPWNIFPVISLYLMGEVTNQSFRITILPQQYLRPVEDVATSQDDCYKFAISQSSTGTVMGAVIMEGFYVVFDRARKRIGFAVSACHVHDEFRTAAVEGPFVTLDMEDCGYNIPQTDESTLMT
# assay-notes: BACE activity Cell Free Assay (ELISA of cleaved synthetic APP substrate)
# Format: biochemical
readout-type: IC50

| compound | test-system | value-measured |
| --- | --- | --- |
| CC1CC2(C=CC(=O)N2c2cccc(F)c2)CCN1Cc1cccc(O)n1 (racemic) | soluble human BACE (Homo sapiens, UniProt P56817) | 100 to 300 µM |
| Cc1ccccc1-c1cc(CN2CC[C@]3(C=CC(=O)N3c3cccc(F)c3)C[C@@H]2C)ccc1O | soluble human BACE (Homo sapiens, UniProt P56817) | 0.001 to 1 µM |
| Cc1ccc2c(CN3CCC4(C=CC(=O)N4c4cccc(F)c4)CC3C)c[nH]c2c1 (racemic) | soluble human BACE (Homo sapiens, UniProt P56817) | 10 to 100 µM |
| CC1CC2(CCC(=O)N2c2cccc(F)c2)CCN1Cc1cccc(OCc2nc(C3CC3)no2)c1 (racemic) | soluble human BACE (Homo sapiens, UniProt P56817) | 100 to 300 µM |
| COc1ccc(-c2csc(CN3CCC4(C=CC(=O)N4c4cccc(F)c4)CC3C)n2)cc1 (racemic) | soluble human BACE (Homo sapiens, UniProt P56817) | 10 to 100 µM |
| CC1CC2(C=CC(=O)N2c2cccc(F)c2)CCN1Cc1c[nH]c2ccc(OCc3ccccc3)cc12 (racemic) | soluble human BACE (Homo sapiens, UniProt P56817) | 10 to 100 µM |
| COc1cc(CN2CCC3(CCC(=O)N3c3cccc(F)c3)CC2C)ccc1O (racemic) | soluble human BACE (Homo sapiens, UniProt P56817) | 10 to 100 µM |
| CC1CC2(C=CC(=O)N2c2cccc(F)c2)CCN1Cc1cccc(S(=O)(=O)N2CCCC2)c1 (racemic) | soluble human BACE (Homo sapiens, UniProt P56817) | 10 to 100 µM |
| CC1CC2(CCC(=O)N2c2cccc(F)c2)CCN1Cc1cc(Br)ccc1F (racemic) | soluble human BACE (Homo sapiens, UniProt P56817) | 100 to 300 µM |
| CC1CC2(C=CC(=O)N2c2cccc(F)c2)CCN1Cc1ccc2[nH]ccc2c1 (racemic) | soluble human BACE (Homo sapiens, UniProt P56817) | 10 to 100 µM |
| CC1CC2(C=CC(=O)N2c2cccc(F)c2)CCN1Cc1nc(-c2ccc(C#N)cc2)cs1 (racemic) | soluble human BACE (Homo sapiens, UniProt P56817) | 10 to 100 µM |
| CC(C)Oc1cccc(CN2CC[C@]3(C=CC(=O)N3c3cccnc3)C[C@@H]2C)c1 | soluble human BACE (Homo sapiens, UniProt P56817) | 10 to 100 µM |
| CC1CC2(CCC(=O)N2c2cccc(F)c2)CCN1Cc1c[nH]c2cc(C(F)(F)F)ccc12 (racemic) | soluble human BACE (Homo sapiens, UniProt P56817) | 100 to 300 µM |
| CC(C)COc1cccc(CN2CCC3(CCC(=O)N3c3cccc(F)c3)CC2C)c1 (racemic) | soluble human BACE (Homo sapiens, UniProt P56817) | 100 to 300 µM |
| C[C@H]1C[C@@]2(C=CC(=O)N2c2cccc(F)c2)CCN1Cc1scnc1CC1CC1 | soluble human BACE (Homo sapiens, UniProt P56817) | 0.001 to 1 µM |
| COc1ccc(Oc2cccc(CN3CCC4(CCC(=O)N4c4cccc(F)c4)CC3C)c2)cc1 (racemic) | soluble human BACE (Homo sapiens, UniProt P56817) | 10 to 100 µM |
